Known shrunken log2 fold change of a selection of sequences
- System: Escherichia coli TOP10;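 also: peptides expressed intracellularly from a pBAD plasmid library in pooled LB shake-flask culture, induced with 0.3% L-arabinose, DNA abundance read by NGS, three biological replicates, DESeq2 with apeglm shrinkage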
- ASSAY SUMMARY: shrunken log2 fold change of peptide-encoding DNA abundance (4.5 h post-induction vs induction); higher = less antimicrobial activity (less host growth inhibition)
- CONDITIONS: time post-induction: 4.5 h; library: site-saturation at positions 5, 18, 19, 20

SEQUENCE ENTRY | shrunken log2 fold change
RRIRCRPPRLPRPRPRPASHPRP | -0.241
RRIRSRPPRLPRPRPRPEEHPRP | -0.0107
RRIRHRPPRLPRPRPRPRYGPRP | -0.629

# next sequence below
Per the reported Escherichia coli TOP10 data, RRIRSRPPRLPRPRPRPQPGPRP has shrunken log2 fold change of 0.287
